Target: P2X2 F301W+F303Y+A304W (Homo sapiens, UniProt Q9UBL9, A304W/F301W/F303Y)
Construct: expressed in transfected cells; host or cells: S. cerevisiae BY4741 background
Test: Fast GCaMP-mScarletI assay in yeast, P2X2 F301W+F303Y+A304W
Type: cell-based
Conditions: four-parameter logistic fit, n = 3; unit inferred, unit M; read-out: EC50, best fit value
parameter: pEC50
Answers are plain numbers, as −log10 of the molar value.

Reported pEC50 ( Nc1ncnc2c1ncn2[C@@H]1O[C@H](COP(=O)(O)OP(=O)(O)OP(=O)(O)O)[C@@H](O)[C@H]1O ) = 5.05

* * *

Target: P2X2 A304W (Homo sapiens, UniProt Q9UBL9, A304W)
Construct: expressed in transfected cells; host or cells: S. cerevisiae BY4741 background
Test: Fast GCaMP-mScarletI assay in yeast, P2X2 A304W
Assay type: cell-based
Conditions: four-parameter logistic fit, n = 3; unit inferred, unit M; read-out: EC50, best fit value
parameter: pEC50
Give bare numbers, as −log10 of the molar value.

Nc1ncnc2c1ncn2[C@@H]1O[C@H](COP(=O)(O)OP(=O)(O)NP(=O)(O)O)[C@@H](O)[C@H]1O | 3.21

--- query ---
Reported pEC50 ( Nc1ncnc2c1ncn2[C@@H]1O[C@H](COP(=O)(O)OP(=O)(O)OP(=O)(O)O)[C@@H](O)[C@H]1O ) = 4.78

* * *

Please go through the items and note down their pEC50.
Target: P2X2 F303Y (Homo sapiens, UniProt Q9UBL9, F303Y)
Sequence (Q9UBL9 1-471 F303Y): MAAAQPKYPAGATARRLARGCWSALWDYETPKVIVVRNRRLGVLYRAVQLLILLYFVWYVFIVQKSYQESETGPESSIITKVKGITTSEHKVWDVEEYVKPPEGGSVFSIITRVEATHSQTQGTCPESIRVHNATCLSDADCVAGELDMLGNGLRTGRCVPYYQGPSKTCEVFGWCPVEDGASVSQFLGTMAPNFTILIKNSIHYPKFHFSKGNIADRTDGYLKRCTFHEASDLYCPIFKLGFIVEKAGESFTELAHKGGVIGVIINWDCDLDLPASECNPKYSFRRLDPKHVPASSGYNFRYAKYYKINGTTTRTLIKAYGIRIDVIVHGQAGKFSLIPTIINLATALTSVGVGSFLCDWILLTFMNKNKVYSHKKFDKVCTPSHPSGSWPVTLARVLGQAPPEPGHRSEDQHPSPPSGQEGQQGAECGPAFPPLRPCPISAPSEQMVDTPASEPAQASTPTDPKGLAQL
Experiment: Fast GCaMP-mScarletI assay in yeast, P2X2 F303Y
Settings: four-parameter logistic fit, n = 3; unit inferred, unit M; read-out: EC50, best fit value
Description: Figure 4 Unnatural-ligand gating in LBD libraries.A, WT P2X2 was tested with 1 mM ATP, 500 μM AMP-PNP, and compared to ATP with the broken receptor (K81C K83C) control with 1 mM ATP in the fast GCaMP-mScarletI assay (n = 3). […] GCaMP assays were performed as follows. […] Cells were loaded onto a black, clear bottom microplate and imaged on a FlexStation3 plate reader. […] Fluorescence was measured with an excitation at 485 nm, and emission 525 nm. […]
Answers are plain numbers, as −log10 of the molar value.

Nc1ncnc2c1ncn2[C@@H]1O[C@H](COP(=O)(O)OP(=O)(O)NP(=O)(O)O)[C@@H](O)[C@H]1O | 3.48

--- query ---
Reported pEC50 ( Nc1ncnc2c1ncn2[C@@H]1O[C@H](COP(=O)(O)OP(=O)(O)OP(=O)(O)O)[C@@H](O)[C@H]1O ) = 5.44
